All values here come from the supplement of paper PMC9170038.

Listed here: items and their measured apparent KD of MS2 coat protein.
# Test system: MS2 coat protein
# experimentalProtocol: apparent KD of MS2 coat protein; higher = weaker reporter binding
# assayConditions: Eterna round: R107; input ligand: theophylline 2 mM

orderedResidues	apparent KD of MS2 coat protein
AGCUCGCGUCCUCAAGCGUCAAAGACGCGUCGAGGACCGGUACGGCCGCCACUCGACCUGAGGAUCACCCAGGUUUAAGCGAGCA [TrypAX 6 #SwitchBubble #AlternativeMS2 #MS2Late #CuTurnoff]	18.1 nM
UGGCAGUACAUGGGUUACUGCCAAGGUGAUACCAGCAUCGAAAGAUGCCCUUGGCAGCACCAACAUGAGGAUCACCCAUGUAAUA [(MT)''-(M)'-(T')-(Theo)-(Ms2)_Design1/22_8]	53.9 nM
CGAAAGCAGUGAUCCAGCUUUCGCCUGGAAGGAGCGAGCGAAAGCUCAGGUAGGUCGCCAGAAACAUGAGGAUCACCCAUGUAAU [(A)''-(M)'-(A)'-(Arg1)-(Arg2)-(M1)-(M2)_Design8]	145 nM
AAGAUACUCUGAAGGAGCGGCAUAAAACAUGAGGAUCACCCAUGUGCGCGGGUGUAAUUAUGCCAGGUAGGUCGCAGAGUAUUUA [#03 Same State - Arginine B]	629 nM
AAGAAAACAUGAGCAAAGCUCAUGUGCGAAGGAGCGGCGGAAACGCCAGGUAGGUCGCGCACAUGAGCAUCAGCCAUGUGUAUCA [Omei Arginine B SS A v3]	101 nM

====

# Test system: MS2 coat protein
# experimentalProtocol: apparent KD of MS2 coat protein; designed switch direction (-1 OFF switch, 1 ON switch): -1; higher = weaker reporter binding
# assayConditions: input ligand: microRNA oligo, concentration not stated
Use 50 nM as the dividing line for apparent KD of MS2 coat protein, with the line itself on the Satisfied side and lower values as Not satisfied.

orderedResidues	classLabel
ACGUACUCUGUAGGAUAUCGAUGAUGCAUGAUUCGAGAAGGACAUGAGGAUCACCCAUGUUUCAAAAGCAUACUAUGUGUAGUA [Design #2] (Eterna round: R96, puzzle: Exclusion NG 1)	Not satisfied
GGAGGACGAGCAGGAUAUUUUCACAUGAGGAUCACCCAUGUGUACUCAGGGUAAUCCUCCGCCGAAAAGAAGGGUUCGGAAUAA [Mat - Exclusion NG 2 - Mod of JL - D81] (Eterna round: R96, puzzle: Exclusion NG 2)	Not satisfied
GUCAGCUCGUCAGGAUAUAUAUACAUGAGGAUCACCCAUGUAAGAUCAGGCUUCGGCCAAUGUAUAUAGAAGGGACGAGCUGAU [ENG2/11-B2] (Eterna round: R96, puzzle: Exclusion NG 2)	Satisfied
UUUAUAUAGUAAGGAUAUGUAUUAUUUCUAUCAACAGAAGGUACUGACAUGAGGAUCACCCAUGUUUUAGUGUGGGCAUGUAGU [JMF's solution 97] (Eterna round: R96, puzzle: Exclusion NG 1)	Satisfied
UGUUGUUGCGCAGGAUAUUGCCAACAGGCAGUAGGAUAUCCGAAAGGAGAAGGACCGCCAACAGGCGAGAAGGGCGGGACAACU [pwkr exNG2 2xF7 2xFMN.12] (Eterna round: R96, puzzle: Exclusion NG 2)	Not satisfied
AGAUGCUCAAGUCGACAUGAGGAUCACCCAUGUACAAUUAACGAGGAUAUCCGAGAUAAAUAAUAGGAGAAGGCGUGAUCAUGA [Mat - Exclusion NG 3 - Mod of JL - D54] (Eterna round: R96, puzzle: Exclusion NG 3)	Satisfied
UGAUCUAGCGGAGGAUAUACAUGAGGAUCACCCAUGUAGACUCUAUGACCGUAGUCGUGGAGAGUGUAGAAGGCCGCUAGAUCU [JL ENG2 3.75] (Eterna round: R96, puzzle: Exclusion NG 2)	Not satisfied
